# assay method text: Pharmacokinetics study of KDG-0320-0A in male CD1 mice (Example 1)
# Format: in vivo
# details: mouse, plasma, 50 mg/kg PO, 4 h, read-out: Concentration PO_Mean
Structures can show the parent of a compound that is named as a salt.
observed property: concentration at 4 h (ng/mL)
Please state the figure in ng/mL; there is no need to write the unit.

What value of concentration at 4 h has been reported for the following compound? Cc1n[nH]c2c1C(c1cc(C#C[C@H]3CC[C@H](NC(=O)OC(C)(C)C)CC3)cc(CO)c1)(C(C)C)C(C#N)=C(N)O2 (stereo partly shown) [KDG-0320, hydrochloride] 126

###

# assay method text: Pharmacokinetics study of KDG-0320-0A in male CD1 mice (Example 1)
# Format: in vivo
# details: mouse, plasma, 50 mg/kg PO
Where a name gives a salt, the structure may show the parent alone.
observed property: AUC(0-inf) (ng·h/mL)
Give the value, in units of ng·h/mL, as a plain number.

// AUC(0-inf) lookup, key: Cc1n[nH]c2c1C(c1cc(C#C[C@H]3CC[C@H](NC(=O)OC(C)(C)C)CC3)cc(CO)c1)(C(C)C)C(C#N)=C(N)O2 (stereo partly shown) [KDG-0320, hydrochloride] 1660

###

# assay method text: Pharmacokinetics study of KDG-0271 in male CD1 mice (Example 4)
# Type: in vivo
# details: mouse, plasma, 30 mg/kg IP
observed property: Cmax (ng/mL)
// units = ng/mL; emit number, no label

Find the recorded Cmax belonging to Cc1n[nH]c2c1C(c1cc(C#CC3CN(C(=O)OC(C)(C)C)C3)cc(CO)c1)(C(C)C)C(C#N)=C(N)O2 (stereo not shown) [KDG-0271] and report it. 3170

###

# assay method text: Pharmacokinetics study of KDG-0320-0A in male CD1 mice (Example 1)
# Format: in vivo
# details: mouse, plasma, 30 mg/kg IP, 8 h, read-out: Concentration IP_Mean
Counter-ions that a name gives are not always drawn.
observed property: concentration at 8 h (ng/mL)
Just the number please, in ng/mL, no unit attached.

Please give the measured concentration at 8 h for this compound: Cc1n[nH]c2c1C(c1cc(C#C[C@H]3CC[C@H](NC(=O)OC(C)(C)C)CC3)cc(CO)c1)(C(C)C)C(C#N)=C(N)O2 (stereo partly shown) [KDG-0320, hydrochloride] 46.2

###

# assay method text: Pharmacokinetics study of KDG-0320-0A in male CD1 mice (Example 1)
# Format: in vivo
# details: mouse, plasma, 1 mg/kg IV, 2 h, read-out: Concentration IV_Mean
Structures can show the parent of a compound that is named as a salt.
observed property: concentration at 2 h (ng/mL)
Field: numeric (ng/mL). Do not append units.

Which value of concentration at 2 h has been reported for Cc1n[nH]c2c1C(c1cc(C#C[C@H]3CC[C@H](NC(=O)OC(C)(C)C)CC3)cc(CO)c1)(C(C)C)C(C#N)=C(N)O2 (stereo partly shown) [KDG-0320, hydrochloride] in the records? 7.16

###

# assay method text: Pharmacokinetics study of KDG-0388 in male CD1 mice (Example 2)
# Type: in vivo
# details: mouse, plasma; male CD1 mice, 200 mg/kg PO
observed property: AUC(0-t)

Quick one: AUC(0-t) for Cc1n[nH]c2c1C(c1cc(C#C[C@H]3C[C@@H](NC(=O)OC(C)(C)C)C3)cc(CO)c1)(C(C)C)C(C#N)=C(N)O2 (stereo partly shown) ? 3390 ng·h/mL

###

# assay method text: Pharmacokinetics study of KDG-0320-0A in male CD1 mice (Example 1)
# Format: in vivo
# details: mouse, plasma, 30 mg/kg IP, read-out: MRTInf_obs
Structures can show the parent of a compound that is named as a salt.
observed property: MRT inf (h)
Provide the reading as a plain figure in h.

Requested read-out: MRT inf. Entry: Cc1n[nH]c2c1C(c1cc(C#C[C@H]3CC[C@H](NC(=O)OC(C)(C)C)CC3)cc(CO)c1)(C(C)C)C(C#N)=C(N)O2 (stereo partly shown) [KDG-0320, hydrochloride] 1.27

###

# assay method text: Pharmacokinetics study of KDG-0320-0A in male CD1 mice (Example 1)
# Assay type: in vivo
# details: mouse, plasma, 1 mg/kg IV
Counter-ions that a name gives are not always drawn.
observed property: AUC(0-t) (ng·h/mL)
Unit ng·h/mL implied. Number only.

Reported AUC(0-t) for Cc1n[nH]c2c1C(c1cc(C#C[C@H]3CC[C@H](NC(=O)OC(C)(C)C)CC3)cc(CO)c1)(C(C)C)C(C#N)=C(N)O2 (stereo partly shown) [KDG-0320, hydrochloride] : what is it? 155

###

# assay method text: Pharmacokinetics study of KDG-0320-0A in male CD1 mice (Example 1)
# Type: in vivo
# details: mouse, plasma, 30 mg/kg IP
Structures can show the parent of a compound that is named as a salt.
observed property: AUC(0-t) (ng·h/mL)
API: value field is a number in ng·h/mL; no unit string.

Report AUC(0-t) for Cc1n[nH]c2c1C(c1cc(C#C[C@H]3CC[C@H](NC(=O)OC(C)(C)C)CC3)cc(CO)c1)(C(C)C)C(C#N)=C(N)O2 (stereo partly shown) [KDG-0320, hydrochloride] please. 7730

###

# assay method text: Pharmacokinetics study of KDG-0271 in male CD1 mice (Example 3)
# Format: in vivo
# details: male, mouse; CD1 mice, plasma, 1 mg/kg IV, 1 h; read-out: Concentration IV_Mean
observed property: concentration at 1 h

Quick one: concentration at 1 h for Cc1n[nH]c2c1C(c1cc(C#CC3CN(C(=O)OC(C)(C)C)C3)cc(CO)c1)(C(C)C)C(C#N)=C(N)O2 (stereo not shown) ? 9.44 ng/mL

###

# assay method text: Pharmacokinetics study of KDG-0388 in male CD1 mice (Example 2)
# Type: in vivo
# details: male CD1 mice, 200 mg/kg IP
observed property: AUClast/D (kg·ng·h/mL/mg)
Answer in kg·ng·h/mL/mg, number only, no unit symbol.

If you can, please state the reported AUClast/D value of Cc1n[nH]c2c1C(c1cc(C#C[C@H]3C[C@@H](NC(=O)OC(C)(C)C)C3)cc(CO)c1)(C(C)C)C(C#N)=C(N)O2 (stereo partly shown) [KDG-0388] . 136

###

# assay method text: Pharmacokinetics study of KDG-0271 in male CD1 mice (Example 4)
# Type: in vivo
# details: mouse, plasma, 50 mg/kg PO
# Procedure: A standard PK study of KDG-0271 was performed in male CD1 mice dosed with a single intravenous, oral or intraperitoneal dose of KDG-0271. The parameters of the PK study are described in Table 26. […] For IV and IP, after collection, plasma samples from the same time point were pooled, and the pooled samples were analyzed by LC/MS/MS. […] BLOQ=Below quantifiable limit of 1 ng/mL. […] The PO bioavailability (F %) was calculated as following: […] The IP bioavailability (F %) was calculated as following: […]
observed property: AUC(0-inf)
# include the unit after the value

For the compound Cc1n[nH]c2c1C(c1cc(C#CC3CN(C(=O)OC(C)(C)C)C3)cc(CO)c1)(C(C)C)C(C#N)=C(N)O2 (stereo not shown) , what AUC(0-inf) is on record? 1910 ng·h/mL

###

# assay method text: Pharmacokinetics study of KDG-0320-0A in male CD1 mice (Example 1)
# Type: in vivo
# details: mouse, plasma, 30 mg/kg IP, 0.5 h, read-out: Concentration IP_Mean
Counter-ions that a name gives are not always drawn.
observed property: concentration at 0.5 h (ng/mL)
Reply numerically in ng/mL, unit not repeated.

Look up concentration at 0.5 h for this molecule: Cc1n[nH]c2c1C(c1cc(C#C[C@H]3CC[C@H](NC(=O)OC(C)(C)C)CC3)cc(CO)c1)(C(C)C)C(C#N)=C(N)O2 (stereo partly shown) [KDG-0320, hydrochloride] 5240

###

# assay method text: Pharmacokinetics study of KDG-0271 in male CD1 mice (Example 4)
# Type: in vivo
# details: 30 mg/kg IP
observed property: AUClast/D (kg·ng·h/mL/mg)
Please respond with the number in kg·ng·h/mL/mg and leave the unit unwritten.

Any idea what its AUClast/D is? The molecule is Cc1n[nH]c2c1C(c1cc(C#CC3CN(C(=O)OC(C)(C)C)C3)cc(CO)c1)(C(C)C)C(C#N)=C(N)O2 (stereo not shown) 174

###

# assay method text: Pharmacokinetics study of KDG-0388 in male CD1 mice (Example 2)
# Assay type: in vivo
# details: male CD1 mice, 200 mg/kg PO
observed property: AUClast/D (kg·ng·h/mL/mg)
Answer in kg·ng·h/mL/mg, number only, no unit symbol.

Given the molecule Cc1n[nH]c2c1C(c1cc(C#C[C@H]3C[C@@H](NC(=O)OC(C)(C)C)C3)cc(CO)c1)(C(C)C)C(C#N)=C(N)O2 (stereo partly shown) , what is its reported AUClast/D? 16.9

Source listed as patent US20230382920A1.
